Listed next: entries and their corresponding IC50.
biological target: Protein tyrosine phosphatase type IVA 3 (Homo sapiens, UniProt O75365); experiment: Inhibition of human recombinant PRL-3
Sequence (O75365 whole entry): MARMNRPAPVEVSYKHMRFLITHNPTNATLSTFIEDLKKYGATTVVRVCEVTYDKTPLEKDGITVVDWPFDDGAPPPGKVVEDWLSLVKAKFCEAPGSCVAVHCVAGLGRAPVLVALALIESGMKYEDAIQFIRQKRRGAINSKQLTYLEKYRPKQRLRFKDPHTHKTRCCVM
Observable: IC50 (µM)

N=C(N)c1ccc(OCCCCCOc2ccc(C(=N)N)cc2)cc1: 53.6
O=C1NC(=S)S/C1=C\c1cc(Br)ccc1O: 9.5
